Provenance of the data: patent US20240116985A1

Molecular target: full-length beta-Catenin (Uniprot ID P35222) (Homo sapiens)
Construct: 10 nM full-length beta-Catenin (Uniprot ID P35222)
Sequence (P35222 1-781): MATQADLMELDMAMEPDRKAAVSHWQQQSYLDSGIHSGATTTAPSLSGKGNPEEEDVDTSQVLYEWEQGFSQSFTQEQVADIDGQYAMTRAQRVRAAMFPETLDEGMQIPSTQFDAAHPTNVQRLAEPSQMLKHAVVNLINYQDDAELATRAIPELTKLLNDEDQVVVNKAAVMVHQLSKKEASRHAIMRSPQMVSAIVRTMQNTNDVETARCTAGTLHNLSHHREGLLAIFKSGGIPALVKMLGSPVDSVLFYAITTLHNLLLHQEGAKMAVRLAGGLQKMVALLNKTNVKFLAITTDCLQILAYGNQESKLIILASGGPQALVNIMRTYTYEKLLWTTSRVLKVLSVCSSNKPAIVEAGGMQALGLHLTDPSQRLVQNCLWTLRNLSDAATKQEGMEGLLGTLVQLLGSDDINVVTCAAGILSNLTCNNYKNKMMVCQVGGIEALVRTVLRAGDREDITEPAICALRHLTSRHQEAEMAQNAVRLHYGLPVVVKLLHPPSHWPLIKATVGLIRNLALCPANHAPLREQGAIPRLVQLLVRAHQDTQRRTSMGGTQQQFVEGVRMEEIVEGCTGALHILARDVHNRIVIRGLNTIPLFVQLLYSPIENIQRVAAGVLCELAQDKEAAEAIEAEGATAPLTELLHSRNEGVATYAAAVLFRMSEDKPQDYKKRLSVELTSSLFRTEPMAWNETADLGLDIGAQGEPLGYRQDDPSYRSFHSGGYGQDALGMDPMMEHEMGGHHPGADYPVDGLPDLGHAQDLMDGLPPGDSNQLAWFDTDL
Experiment: Fluorescence polarization IC50 (beta-catenin / 5FAM-TCF4 10-53 competition)
Assay type: binding
Settings: fluorescence polarization; read-out: beta-Catenin FP IC50
METRIC: pIC50
By convention, pIC50 is the negative base-10 log of a molar concentration.

(Q) Quick one: pIC50 for CC(=O)N1CCC[C@]12CCCCCCC1(CCCCCCCCOC(=O)N3CC[C@@](C(=O)N[C@@H](Cc4ccsc4)C(=O)N[C@@H](Cc4csc5ccccc45)C(=O)N[C@H](C(N)=O)C(C)C)(C3)NC(=O)[C@H]([C@@H](C)O)NC(=O)[C@H](Cc3ccccc3)NC(=O)[C@H](C)NC(=O)[C@H](CCCCNC(C)C)NC(=O)[C@H](CN(CC(=O)O)CC(F)(F)F)NC(=O)[C@H](CC(=O)O)NC1=O)NC(=O)[C@H](CC(C)(C)C)NC(=O)[C@H](CC(=O)O)NC2=O (stereo partly shown) ?
(A) 6.76

###

Documented pIC50 across a set of compounds
molecular target: beta-catenin/TCF4 engagement (Homo sapiens, UniProt P35222); construct: expressed in transfected cells; host or cells: HEK293; test: Nano-BRET target engagement assay (B-cat-Halo & TCF4-Luc in HEK293 cells); format: cell-based; conditions: absolute IC50; read-out: NanoBRET Abs IC50
By convention, pIC50 is the negative base-10 log of a molar concentration.

INSERT INTO assay_data (compound, metric, recorded_value) VALUES
  ('CC(=O)N1CCC[C@]12CC=CCCCC1(CCCC=CCCCOC(=O)N3CC[C@@](C(=O)N[C@@H](Cc4ccsc4)C(=O)N[C@@H](Cc4csc5ccccc45)C(=O)N[C@@H](CCC(N)=O)C(N)=O)(C3)NC(=O)[C@H](CC(N)=O)NC(=O)[C@H](Cc3ccccc3)NC(=O)[C@H](C)NC(=O)[C@H](C)NC(=O)[C@H](CC(=O)O)NC(=O)[C@H](CC(N)=O)NC1=O)NC(=O)[C@H](CC(C)(C)C)NC(=O)[C@H](CC(=O)O)NC2=O (stereo partly drawn)', 'pIC50', 4.56),
  ('CC(=O)N1CCC[C@]12CC=CCCCC1(CCCC=CCCCOC(=O)N3CC[C@@](C(=O)N[C@@H](Cc4ccccc4Cl)C(=O)N[C@@H](Cc4csc5ccccc45)C(=O)N[C@@H](CCC(N)=O)C(N)=O)(C3)NC(=O)[C@H](CC(N)=O)NC(=O)[C@H](Cc3ccccc3)NC(=O)[C@H](C)NC(=O)[C@H](C)NC(=O)[C@H](CC(=O)O)NC(=O)[C@H](CC(=O)O)NC1=O)NC(=O)[C@H](CC1CCCCC1)NC(=O)[C@H](CC(=O)O)NC2=O (stereo partly drawn)', 'pIC50', 5.03),
  ('CC(=O)N1CCC[C@]12CC=CCCCC1(CCCC=CCCCOC(=O)N3CC[C@@](C(=O)N[C@@H](Cc4ccccc4)C(=O)N[C@@H](Cc4csc5ccccc45)C(=O)N[C@@H](CCC(N)=O)C(N)=O)(C3)NC(=O)[C@H](CC(N)=O)NC(=O)[C@H](Cc3ccccc3)NC(=O)[C@H](C)NC(=O)[C@H](C)NC(=O)[C@H](CCC(=O)O)NC(=O)[C@H](CC(=O)O)NC1=O)NC(=O)[C@H](CC(C)(C)C)NC(=O)[C@H](CC(=O)O)NC2=O (stereo partly drawn) [I-685]', 'pIC50', 4.71);

(Q) Quick one: pIC50 for CC(=O)N1CCC[C@]12CC=CCCCC1(CCCC=CCCCOC(=O)N3CC[C@@](C(=O)N[C@@H](Cc4ccsc4)C(=O)N[C@@H](Cc4csc5ccccc45)C(=O)N[C@@H](CC(N)=O)C(=O)N[C@@H](C)C(=O)N[C@@H](C)C(=O)N[C@@H](C)C(=O)N[C@@H](C)C(=O)N[C@@H](C)C(N)=O)(C3)NC(=O)[C@H](CC(C)C)NC(=O)[C@H](Cc3ccccc3)NC(=O)[C@H](C)NC(=O)[C@H](C)NC(=O)[C@H](Cc3cccc(C(=O)O)c3)NC(=O)[C@H](CC(=O)O)NC1=O)NC(=O)[C@H](CC(C)(C)C)NC(=O)[C@H](CC(=O)O)NC2=O (stereo partly drawn) ?
(A) 5.51

(Q) Quick one: pIC50 for CC(=O)N1CCC[C@]12CC=CCCCC1(CCCC=CCCCOC(=O)N3CC[C@@](C(=O)N[C@@H](Cc4ccsc4)C(=O)N[C@@H](Cc4csc5ccccc45)C(=O)N[C@H](CO)[C@@H](C)O)(C3)NC(=O)[C@H](CC(C)C)NC(=O)[C@H](Cc3ccccc3)NC(=O)[C@H](C)NC(=O)[C@H](C)NC(=O)[C@H](CC(=O)O)NC(=O)[C@H](CC(=O)O)NC1=O)NC(=O)[C@H](CC(C)(C)C)NC(=O)[C@H](CC(=O)O)NC2=O (stereo partly drawn) ?
(A) 4.67

(Q) Quick one: pIC50 for CC(=O)N1CCC[C@]12CC=CCCCC1(CCCC=CCCCOC(=O)N3CC[C@@](C(=O)N[C@@H](Cc4ccccc4Cl)C(=O)N[C@@H](Cc4csc5ccccc45)C(=O)N[C@@H](CO)C(N)=O)(C3)NC(=O)[C@H](Cc3ccccc3)NC(=O)[C@H](Cc3ccccc3)NC(=O)[C@H](C)NC(=O)[C@H](C)NC(=O)[C@H](Cc3ccccc3C(=O)O)NC(=O)[C@H](CC(=O)O)NC1=O)NC(=O)[C@H](CC(C)(C)C)NC(=O)[C@H](CC(=O)O)NC2=O (stereo partly drawn) ?
(A) 4.92

(Q) Quick one: pIC50 for CC(=O)N1CCC[C@]12CC=CCCCC1(CCCC=CCCCCCC[C@@](C)(C(=O)N[C@@H](Cc3ccccc3)C(=O)N[C@@H](Cc3csc4ccccc34)C(=O)N[C@@H](CCC(N)=O)C(=O)N[C@@H](C)C(N)=O)NC(=O)[C@H](CC(N)=O)NC(=O)[C@H](Cc3ccccc3)NC(=O)[C@H](C)NC(=O)[C@H](C)NC(=O)[C@H](CCC(=O)O)NC(=O)[C@H](CC(=O)O)NC1=O)NC(=O)[C@H](CC(C)C)NC(=O)[C@H](CC(=O)O)NC2=O (stereo partly drawn) ?
(A) 4.95

(Q) Quick one: pIC50 for CC[C@H](C)[C@@H]1NC(=O)[C@H](CC(=O)O)NC(=O)[C@]2(CC=CCCCC3(CCCC=CCCCCCC[C@@](C)(C(=O)N[C@@H](Cc4ccccc4)C(=O)N[C@@H](Cc4csc5ccccc45)C(=O)N[C@@H](CCC(N)=O)C(N)=O)NC(=O)[C@H](CC(N)=O)NC(=O)[C@H](Cc4ccccc4)NC(=O)[C@H](C)NC(=O)[C@H](C)NC(=O)[C@H](CCC(=O)O)NC(=O)[C@H](CC(=O)O)NC3=O)NC1=O)CCCN2C(C)=O (stereo partly drawn) ?
(A) 4.77

(Q) Quick one: pIC50 for CC(=O)N1CCC[C@]12CC=CCCCC1(CCCC=CCCCOC(=O)N3CC[C@@](C(=O)N[C@@H](Cc4ccccc4F)C(=O)N[C@@H](Cc4csc5ccccc45)C(=O)N[C@@H](CCC(N)=O)C(N)=O)(C3)NC(=O)[C@H](Cc3ccccc3)NC(=O)[C@H](Cc3ccccc3)NC(=O)[C@H](C)NC(=O)[C@H](C)NC(=O)[C@H](CC(=O)O)NC(=O)[C@H](CC(=O)O)NC1=O)NC(=O)[C@H](CC(C)(C)C)NC(=O)[C@H](CC(=O)O)NC2=O (stereo partly drawn) ?
(A) 5.04
